assay: PAMPA with synthetic phospholipid membrane, octyl chain (C8); type: in vitro ADME; conditions: C8, donor pH 8.2, acceptor pH 7.4, 16 h
Counter-ions that a name gives are not always drawn.
# P e listing for each entry below

MOLECULE | P e
CC1(C)S[C@@H]2[C@H](NC(=O)[C@H](N)c3ccc(O)cc3)C(=O)N2[C@H]1C(=O)O [Amoxicillin] | 2.4 ×10^–7 cm/s
CN(C)C(=N)N=C(N)N [Metformin Hydrochloride] | 4.9 ×10^–7 cm/s
CN/C(=N/CCSCc1nc[nH]c1C)NC#N [Cimetidine] | 3.2 ×10^–6 cm/s
CNC(=C[N+](=O)[O-])NCCSCc1ccc(CN(C)C)o1 [Ranitidine] | 4.9 ×10^–7 cm/s
COCCc1ccc(OCC(O)CNC(C)C)cc1 (stereo not drawn) [Metoprolol Tartrate] | 8.0 ×10^–5 cm/s

Then this molecule:
[Q] Recorded P e for CCn1cc(C(=O)O)c(=O)c2cc(F)c(N3CCNCC3)cc21 [Norfloxacin] , please?
[A] 2.5 ×10^–6 cm/s

====

experiment: PAMPA with synthetic phospholipid membrane, octyl chain (C8); type: in vitro ADME; conditions: C8, donor pH 9.32, acceptor pH 7.4, 16 h
Where a name gives a salt, the structure may show the parent alone.
PROPERTY LABEL: P e

Known P e results, listed for orientation:
COMPOUND | MEASUREMENT
CC1(C)S[C@@H]2[C@H](NC(=O)[C@H](N)c3ccc(O)cc3)C(=O)N2[C@H]1C(=O)O | 2.2 ×10^–7 cm/s
COCCc1ccc(OCC(O)CNC(C)C)cc1 (stereo not shown) [Metoprolol Tartrate] | 8.9 ×10^–5 cm/s
CCn1cc(C(=O)O)c(=O)c2cc(F)c(N3CCNCC3)cc21 | 2.2 ×10^–6 cm/s

The record that follows has no P e shown yet.
[Q] I have this compound here, CN(C)C(=N)N=C(N)N [Metformin Hydrochloride] , and I need its recorded P e.
[A] 7.4 ×10^–7 cm/s

====

test: PAMPA with synthetic phospholipid membrane, lauryl chain (C12); format: in vitro ADME; settings: C12, donor pH 8.2, acceptor pH 7.4, 16 h
Where a name gives a salt, the structure may show the parent alone.
PROPERTY LABEL: P e

COMPOUND | P e
COCCc1ccc(OCC(O)CNC(C)C)cc1 (centres unmarked) [Metoprolol Tartrate] | 8.0 ×10^–5 cm/s
CC1(C)S[C@@H]2[C@H](NC(=O)[C@H](N)c3ccc(O)cc3)C(=O)N2[C@H]1C(=O)O | 2.3 ×10^–7 cm/s
CC(C)Cc1ccc(C(C)C(=O)O)cc1 (centres unmarked) | 1.5 ×10^–6 cm/s

[Q] Item `O=C(N[C@H](CO)[C@H](O)c1ccc([N+](=O)[O-])cc1)C(Cl)Cl` has what recorded P e?
[A] 0.7 ×10^–6 cm/s

[Q] Returns the measured P e for the input compound. Input: `CCn1cc(C(=O)O)c(=O)c2cc(F)c(N3CCNCC3)cc21`
[A] 2.6 ×10^–6 cm/s

[Q] Fill in the blank: the reported P e of CN(C)C(=N)N=C(N)N [Metformin Hydrochloride] is ____.
[A] 4.9 ×10^–7 cm/s

[Q] Fill blank: measured P e of the compound `CNC(=C[N+](=O)[O-])NCCSCc1ccc(CN(C)C)o1` is ____.
[A] 4.9 ×10^–7 cm/s

[Q] Param item = `CN/C(=N/CCSCc1nc[nH]c1C)NC#N` ; retrieve measured P e.
[A] 3.2 ×10^–6 cm/s
